Ref: PubChem BioAssay (NCI)

Test system: OVCAR-8 ovarian
Experiment Notes: NCI-60 one-dose screen, 48 h (100 = growth as untreated, 0 = no growth, -100 = all killed)
Setup Conditions: 10 µM unless noted
About 83,000 compounds went through this panel and 20% of them were active in at least one assay; those are over-represented in the sample as a whole.
// reported growth per item
Measurement Name: growth (%)

- COc1cc(OC)c2c(c1)c1nc3cc(C)c(C)cc3nc1n2CCN(C)C: 79.3
- Fc1ccc2c(c1)c(-c1nc(-c3c[nH]c4ncccc34)cs1)cn2CCCN1CCCCC1: 76.9
- Nc1nc(N)c2nc3c(nc2n1)CCCCCCCCCC3: 39.9
- c1ccc(C2Cc3ccccc3C2=NC2CCCCC2)cc1 (centres undefined): 107
- COc1cc2c(cc1-c1c(C)noc1C)ncc1nc(C3CC3)n([C@H](C)COC(F)F)c12: 46.3
- Cn1cc(-c2nc(-c3c[nH]c4ncccc34)cs2)c2cc(F)ccc21: 51.4
- Cc1ccc(C)c2c1CCC2C(C)C (centres undefined): 100
- Cc1cc(N=O)cc(C(C)(C)C)c1O: 103
- Cn1nc(-c2ccccc2)c2c(-c3ccccc3)onc2c1=O: 51.9
- Clc1ccc2c(NCCNc3nc(-c4ccccc4)cc(-c4ccccc4)n3)ccnc2c1: -70.6
- O=Cc1nc2ccccc2[nH]1: 100
- Cc1ccc(-c2nc([P+](c3ccccc3)(c3ccccc3)c3ccccc3)c(N3CCOCC3)o2)cc1: 3.78
- CCOC(=O)N1CCN(CCCCOc2ccc(C(C)(C)CC)cc2)CC1: 103
- COc1cc(-c2cc3ncccc3c3nc(OCCN(C)C)c4cccnc4c23)cc(OC)c1OC: -5.22
- CCSc1ncnc2c1ncn2C1OC(CO)C(O)C1O (centres undefined): 29.5
- COc1ccc(-c2nc(SCC(=O)Nc3ccc(C(C)=O)cc3)[nH]c(=O)c2C#N)cc1: 91
- Cn1c(=O)c2c(ncn2CCC(=O)Nc2ccc(F)cc2)n(C)c1=O: 108
- Nc1nc2c3ccncc3cc(-c3cccc(Cl)c3)c2c2cnccc12: 24.1
- NC(N)=N/N=C/c1ccc(-c2ccc(-c3ccc(Cl)cn3)s2)cc1: 99.3
- Cc1nn(-c2ccc(Br)cc2)c2nc3[nH]c(=O)[nH]c(=O)c3nc12: 111
- Cc1ccc2[nH]cc(-c3nc(-c4cn(C)c5ncccc45)cs3)c2c1: 85.8
- COc1cccc(-c2nn(-c3ccccc3)cc2-c2ccnc(NCCNS(=O)(=O)c3cccc(F)c3)c2)c1: 20.2
- CCN1CCN(C(=O)[C@]23CCC(C)(C)C[C@@H]2C2=CC[C@@H]4[C@@]5(C)C/C(=C/c6cccnc6)C(=O)C(C)(C)[C@@H]5CC[C@@]4(C)[C@]2(C)CC3)CC1: 27.1
- COc1ccc(C(=O)c2cc(OC)c(OC)c(OC)c2)cc1/C=C/C(=O)c1cc(OC)c(OC)c(OC)c1: 86.7
- COC(=O)[C@]12CC[C@@H](C(C)=O)[C@@H]1[C@H]1CC[C@@H]3[C@@]4(C)C/C(=C/c5cccnc5)C(=O)C(C)(C)[C@@H]4CC[C@@]3(C)[C@]1(C)CC2: 38.7
- Oc1cc(/C=C/c2nc(N3CCOCC3)c3cc(Cl)c(Cl)cc3n2)cc(O)c1O: 107
- CC(=O)O[C@H]1CC[C@]2(C)[C@H]3C(=O)C=C4[C@@H]5C[C@](C)(C(=O)N6CCCNCC6)CC[C@]5(C)CC[C@@]4(C)[C@]3(C)CC[C@H]2C1(C)C: -24.6
- COc1cnc2c(c1)C(=O)c1c-2n(CCCNC(C)C)c(=O)c2cc([N+](=O)[O-])ccc12: -47.6
- Cn1cc(-c2nc(-c3c[nH]c4ncccc34)cs2)c2ccccc21: 101
- COc1ccc(-c2cc(-c3c(C)oc4cc5occc5c(OC)c4c3=O)nc(N)c2C#N)cc1OC: 61.2
- C/C(=N\Nc1cc(C)c2ccccc2n1)c1ccccn1: -23.3
- CC(CNc1nc(Nc2ccc(Cl)c(Cl)c2)nc(C(Cl)(Cl)Cl)n1)N(C)C (centres undefined): -50.8
- CCOC(=O)C1OC1(c1ccccc1)c1ccccc1 (centres undefined): 99.6
- COc1cc(/C=C/c2cc(/C=C/c3ccc(O)c(OC)c3)n(-c3ccc(Cl)cc3)c(=O)n2)ccc1O: 107
- C#CCN=C[C@]12CC[C@@H](C(=C)C)[C@@H]1[C@H]1CC[C@@H]3[C@@]4(C)CCC(=O)C(C)(C)[C@@H]4CC[C@@]3(C)[C@]1(C)CC2: 57.2
- CC(Cc1ccco1)C(=O)NC(N)=O (centres undefined): 101
- Cc1cc(N(CCCNc2ccnc3cc(Cl)ccc23)Cc2ccco2)nc(N2CCOCC2)n1: 80.4
- Cn1cc(-c2csc(-c3cn(C(=O)OC(C)(C)C)c4ccc(Br)cc34)n2)c2cccnc21: 70.7
- Cc1ccsc1-c1ccc2c(c1)COC2(CCCN(C)C)c1ccc(F)cc1 (centres undefined): 71.9

* * *

Tested on: SNB-19 CNS
Experiment Notes: NCI-60 one-dose screen, 48 h (100 = growth as untreated, 0 = no growth, -100 = all killed)
Setup Conditions: 10 µM unless noted
Method: Growth inhibition of the SNB-19 human tumor cell line is measured as a screen for anti-cancer activity. Cells are grown in 96 well plates and exposed to the test compound for 48 hours. Compounds are tested at a single concentration, which is 10^-5 M for most compounds. The reported endpoint is percent growth (GI% or GIPRCNT), where numbers from 0 - 100% represent growth inhibition, and numbers from -100% - 0 represent cell death. For example, a value of 40 represents 60% growth inhibition. […]
This is part of a sample that, as a whole, favours compounds with a hit. Of some 83,000 tested, about 20% had one in any assay.
// classify(record): look up growth in ranges low value (below 40%), medium value (40% to below 80%), high value (80% or more)

* Clc1ccccc1-c1nc(Nc2nc3ccccc3s2)nc(C(Cl)(Cl)Cl)n1 | medium value
* O=[N+]([O-])c1ccc(/C=N\Nc2ccccc2)cc1 | high value
* Nc1c2c(nc3ccc(Cl)cc13)CC(c1ccc(O)cc1)CC2=O (stereo not given) | medium value
* O=S(=O)(NCCNc1cc(-c2cn(-c3ccccc3)nc2-c2cccc(O)c2)ccn1)c1ccc(Br)cc1 | medium value
* COc1cc2ncnc(Nc3ccc(OCc4cccc(F)c4)c(Cl)c3)c2cc1NC(=O)C1CCCC1 | high value
* [B-][N+](CC)(CC)c1ccccc1 | high value
* O=C(/C(=C(\C(=O)c1ccccc1)c1ccccc1)c1ccccc1)c1ccccc1 | medium value
* Cc1ccc(/C=C(\C#N)c2cc3ccccc3n2C)cc1 | low value
* CCCCC[C@H]1C/C=C2/C(=O)C(Cl)=C[C@@H]2C/C=C\CCCC(=O)O[C@@H](CCCCC)C/C=C2/C(=O)C(Cl)=C[C@@H]2C/C=C\CCCC(=O)O1 | low value

* * *

System: MALME-3M melanoma
Experiment Notes: NCI-60 one-dose screen, 48 h (100 = growth as untreated, 0 = no growth, -100 = all killed)
Setup Conditions: 10 µM unless noted
This is part of a sample that, as a whole, favours compounds with a hit. Of some 83,000 tested, about 20% had one in any assay.
Param threshold (80%) applies to growth; output YES when value >= threshold, NO when value < threshold.

- COc1cc(-c2cc(-c3nc4ccccc4[nH]3)[nH]n2)cc(OC)c1OC: NO
- Cc1cc2nc3c4cc(Cl)ccc4n(CCN(C)C)c3nc2cc1C: NO
- O=C1c2ccccc2C(=Cc2ccccc2)c2ccccc21: NO
- N#Cc1c(-c2ccc(O)cc2)c2c(N)nn(-c3ccccc3)c2[nH]c1=O: YES
- O=c1c(CNc2ccc(S(=O)(=O)Nc3nccs3)cc2)coc2ccccc12: YES
- C#Cc1cc2c(N)c(C(=O)c3cc(OC)c(OC)c(OC)c3)[nH]c2cc1OC: NO
- CC(C)(C)c1cc(-n2c(-c3ccc(Cl)cc3)nc3cc(C(=O)Nc4ccc(Cl)cc4)ccc32)n[nH]1: NO
- CC(C)=CCC/C(C)=C/CC/C(C)=C/CSC[C@H](NC(=O)CCCCCN1CCN(C)CC1)C(=O)NC1CCCCCC1: NO
- N#C/C(=C\c1ccc(-c2ccc(Br)cc2)o1)c1nc(-c2cccs2)cs1: YES
- CC1(C)C(=O)/C(=C\c2cccnc2)C[C@]2(C)[C@H]3CC[C@@H]4[C@@H](C(=O)/C=C/c5ccncc5)CC[C@@]4(C)[C@]3(C)CC[C@@H]12: NO
- Cn1cc(-c2csc(-c3cn(CCCN4CCCCC4)c4ccc(Br)cc34)n2)c2cccnc21: NO
- Cn1cc(-c2csc(-c3cn(CCNC(=O)OC(C)(C)C)c4ccc(F)cc34)n2)c2cccnc21: YES
- O=S(=O)(NCCNc1cc(-c2cn(-c3ccccc3)nc2-c2cccc(O)c2)ccn1)c1ccccc1: NO
- C=C1C(=O)O[C@H]2[C@H]1CC/C(COC(=O)NCCc1c[nH]c3ccccc13)=C\CC[C@@]1(C)O[C@@H]21: NO
- CCOC(=O)C1OC1(c1ccccc1)c1ccccc1 (stereo not drawn): YES
- COc1cccc(-c2nn(-c3ccccc3)cc2-c2ccnc(NCCCO)c2)c1: NO
- COC(=O)[C@]12CC[C@@H](C)[C@H](C)[C@@H]1C1=CC[C@@H]3[C@@]4(C)C[C@@H](OC(C)=O)[C@H](OC(C)=O)[C@@](C)(COC(C)=O)[C@@H]4[C@H](O)C[C@@]3(C)[C@]1(C)CC2: NO
